# SYSTEM: Platelet-derived growth factor receptor alpha (Homo sapiens)
# EXPERIMENT NOTES: Inhibition of recombinant TEL-fused PDGFR-alpha (unknown origin) expressed in mouse BAF3 cells assessed as growth inhibition after 72 hrs by CellTiter-Glo or CCK-8 assay
# Type: cell-based
MEASURE: GI50 (nM)
# unit: nM | format: bare number

Reference set, count: 3
>>> recorded_value("CCC(=O)Nc1cc(Nc2ncc(C(=O)Nc3cc(NC(=O)c4cccc(C(F)(F)F)c4)ccc3C)c(NC)n2)ccc1C")
45
>>> recorded_value("CCC(=O)Nc1cc(Nc2ncc(C(=O)Nc3cc(NC(=O)c4cc(OC)c(OC)c(OC)c4)ccc3C)c(NC)n2)ccc1C")
370
>>> recorded_value("C=CC(=O)Nc1cc(Nc2ncc(C(=O)Nc3cc(NC(=O)c4cccc(C(F)(F)F)c4)ccc3C)c(NC)n2)ccc1C")
99

Let's switch to this compound now.
Briefly, GI50 measured for C=CC(=O)Nc1cc(Nc2ncc(C(=O)Nc3cc(NC(=O)c4cc(OC)c(OC)c(OC)c4)ccc3C)c(NC)n2)ccc1C : 670
